Assay system: T1, mouse FRα (Mus musculus, UniProt P35846)
T1 construct: CD33 signal peptide (N, cleaved yes); made in house
T1 sequence (P35846 with tags, fused parts or gaps): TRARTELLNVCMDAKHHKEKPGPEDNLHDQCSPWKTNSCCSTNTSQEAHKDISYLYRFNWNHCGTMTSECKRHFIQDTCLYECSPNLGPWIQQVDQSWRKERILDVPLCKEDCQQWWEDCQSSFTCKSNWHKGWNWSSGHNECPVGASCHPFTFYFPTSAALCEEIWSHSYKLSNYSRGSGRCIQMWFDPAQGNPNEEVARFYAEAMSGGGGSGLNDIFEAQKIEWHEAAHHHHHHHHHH
Protocol details: HTRF antigen (IgG) binding assay
Condition: hybridoma supernatant, 1 nM biotinylated antigen; binder >30% delta F
Measure name: HTRF IgG binding assay (% Delta F) Mouse FRα

# Molecule, Meas value
measured = [
    ("AB1370035: anti-FRα fully human IgG1 antibody; VH SEQ ID NO: 41, VL SEQ ID NO: 42 (antibody, V domains shown) VH: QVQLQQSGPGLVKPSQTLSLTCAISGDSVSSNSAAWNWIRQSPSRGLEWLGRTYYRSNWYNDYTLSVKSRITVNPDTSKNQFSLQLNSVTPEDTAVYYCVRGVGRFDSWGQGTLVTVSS VL: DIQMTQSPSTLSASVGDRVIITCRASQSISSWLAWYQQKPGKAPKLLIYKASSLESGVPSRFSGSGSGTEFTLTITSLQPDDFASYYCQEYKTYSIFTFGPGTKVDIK", "−5.22"),
]
